# target-entity: P-glycoprotein (P-gp, ABCB1, MDR1) (Homo sapiens, UniProt P08183)
# Sequence (P08183 whole entry): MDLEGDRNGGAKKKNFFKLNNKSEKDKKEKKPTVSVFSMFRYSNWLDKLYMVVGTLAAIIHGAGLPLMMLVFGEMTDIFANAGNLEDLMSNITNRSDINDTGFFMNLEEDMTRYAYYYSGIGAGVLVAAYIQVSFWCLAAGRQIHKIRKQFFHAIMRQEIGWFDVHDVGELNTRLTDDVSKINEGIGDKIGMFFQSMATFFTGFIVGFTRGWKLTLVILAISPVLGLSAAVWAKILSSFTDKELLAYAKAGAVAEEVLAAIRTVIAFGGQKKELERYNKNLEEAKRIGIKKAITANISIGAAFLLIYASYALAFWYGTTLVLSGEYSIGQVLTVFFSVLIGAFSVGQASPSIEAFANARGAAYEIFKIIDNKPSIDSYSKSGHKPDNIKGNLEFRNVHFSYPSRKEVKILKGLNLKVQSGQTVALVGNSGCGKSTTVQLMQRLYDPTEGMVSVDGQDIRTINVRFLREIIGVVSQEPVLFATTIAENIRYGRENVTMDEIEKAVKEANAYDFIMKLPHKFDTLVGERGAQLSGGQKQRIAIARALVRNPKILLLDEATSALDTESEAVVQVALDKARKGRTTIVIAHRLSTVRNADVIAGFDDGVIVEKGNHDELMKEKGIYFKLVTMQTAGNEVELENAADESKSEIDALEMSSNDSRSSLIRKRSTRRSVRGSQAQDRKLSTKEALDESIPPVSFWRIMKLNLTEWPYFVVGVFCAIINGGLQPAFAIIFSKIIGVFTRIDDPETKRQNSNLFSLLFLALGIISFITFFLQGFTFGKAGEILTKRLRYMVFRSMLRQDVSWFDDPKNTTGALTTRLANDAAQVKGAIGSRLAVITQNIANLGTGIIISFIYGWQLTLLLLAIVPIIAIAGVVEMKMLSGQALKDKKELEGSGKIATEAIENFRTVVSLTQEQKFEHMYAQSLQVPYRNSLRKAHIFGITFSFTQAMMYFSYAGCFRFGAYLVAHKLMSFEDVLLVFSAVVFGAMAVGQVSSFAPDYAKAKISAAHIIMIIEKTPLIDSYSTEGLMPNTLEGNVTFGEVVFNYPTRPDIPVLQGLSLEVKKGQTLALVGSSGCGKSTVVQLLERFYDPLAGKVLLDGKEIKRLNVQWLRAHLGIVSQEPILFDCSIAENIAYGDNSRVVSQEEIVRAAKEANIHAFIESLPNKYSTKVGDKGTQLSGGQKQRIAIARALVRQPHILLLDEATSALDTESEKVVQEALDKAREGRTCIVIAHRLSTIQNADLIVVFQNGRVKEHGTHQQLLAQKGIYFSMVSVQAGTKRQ
# assay-text: inhibition of […]-IAAP photoaffinity labeling of P-gp in crude membranes
# Assay type: binding
assay-endpoint: pIC50
When answering, recall that pIC50 equals minus log10 of the concentration in mol/L, and write that number alone.

**Query** Output pIC50 of C=C(C)/C=C/C[C@@H](C)[C@H]1CC[C@@]2(C)[C@@H]3[C@@H](O)C=C4[C@@H](CC[C@H](O)C4(C)C)[C@]3(C=O)CC[C@]12C
**Result** 5.08
